# System: CDK4-cyclinD1
# experimental.context: concentration: 1 μM, replicates: in singlicate; n = 1;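 further: KINOMEscan kinase panel screen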
value.type: %Inh (%)
Response body: numeric value in %, unit text excluded.

Ask: So what's the measured %Inh for this one? O=C(Nc1n[nH]c2cc(-c3cccc(F)c3)ccc12)C1CC1 [SB-735464]
Reply: 8

Ask: So what's the measured %Inh for this one? CC(=O)Nc1ccc(COc2ccc(Nc3ccnc4cc(-c5ccccn5)ccc34)cc2)cc1.Cl [GW440148]
Reply: 0

Ask: So what's the measured %Inh for this one? O=C(Nc1cccc(-c2nn3ncccc3c2-c2ccnc(Nc3cccc(C(F)(F)F)c3)n2)c1)c1c(F)cccc1F [GSK299495]
Reply: 0

====

Reported %Inh values for the following molecules.
# System: ROCK2
# experimental.context: concentration: 1 μM, replicates: in singlicate; n = 1
Response body: numeric value in %, unit text excluded.

>>> value_reported("COc1cc(Nc2nccc(N3CCC(NC(=O)c4cccc(NC(C)=O)c4)C3)n2)cc(OC)c1OC (stereo not drawn)")
49
>>> value_reported("O=c1cc(N2CCOCC2)nc2n(Cc3cccc(Cl)c3Cl)c(C3CC3)nn12")
0
>>> value_reported("CSc1ccc(-c2cc3ncnc(SCC(=O)O)c3s2)cc1")
0
>>> value_reported("CN1c2ccc(CNc3ccc(F)cc3)cc2-c2c(cnn2C)S1(=O)=O")
0
>>> value_reported("C[C@@H](Oc1cc(-n2cnc3ccc(NC(=O)NC(C)(C)C)cc32)sc1C(N)=O)c1ccccc1Cl")
17

We next turn to a different molecule, shown below.
Ask: So what's the measured %Inh for this one? Cc1nnc(-c2ccc3ncc(-c4ccc(S(C)=O)cc4)n3c2)o1 (stereo not drawn)
Reply: 9

====

# Tested on: TNK2
# experimental.context: concentration: 1 μM, replicates: in singlicate; n = 1
Reported %Inh values for the following molecules.
Response body: numeric value in %, unit text excluded.

Below, 5 molecules whose answers are already recorded.
>>> value_reported("COc1ccc(Nc2nccc(N3CCC(NC(=O)Nc4cccc(C(C)=O)c4)C3)n2)cc1 (stereo not drawn) [GSK1379731]")
0
>>> value_reported("O=C(NCCNc1ccnc(Nc2ccc(F)cc2)n1)c1cc2ccccc2s1 [GSK1379874]")
7
>>> value_reported("c1ccc(-c2cc(-c3c[nH]nc3-c3ccccn3)ccn2)cc1 [GW576604]")
1
>>> value_reported("Fc1ccc(-c2nn3c(OCC(F)(F)F)cccc3c2-c2ccncc2)cc1 [GW514784]")
18
>>> value_reported("Fc1ccc(-c2ncn(CCCN3CCOCC3)c2-c2ccccn2)cc1 [SB-211742]")
0

Ask: So what's the measured %Inh for this one? Cc1c(Cn2c(C)nn3c(=O)cc(N4CCOC(C)C4)nc23)cccc1C(F)(F)F (stereo not drawn) [GSK2344444]
Reply: 7

Ask: So what's the measured %Inh for this one? `COc1cc2c(cc1OC[C@@H](O)CO)ncc1c3ccc(C#N)cc3[nH]c21`
Reply: 0

Ask: So what's the measured %Inh for this one? Cc1nnc(-c2ccc3occ(-c4ccc(C(C)O)cc4)c3c2)o1 (stereo not drawn)
Reply: 0

Ask: So what's the measured %Inh for this one? `Cc1ccc(C(=O)NCC(N)=O)cc1-n1c(C)cc(OCc2ccc(F)cc2F)c(Br)c1=O`
Reply: 15

====

# Test system: CAMK1G
# experimental.context: concentration: 1 μM, replicates: in singlicate; n = 1
value.type: %Inh
Your reply should be a number followed by the unit it is expressed in.

Below, 6 compounds whose answers are already recorded.
>>> value_reported("COc1ccc(CNC(=O)NC2CCN(c3ccnc(Nc4ccc(OC)cc4)n3)C2)cc1 (centres unmarked)")
"0%"
>>> value_reported("CC(=O)Nc1ccc(COc2ccc(Nc3ccnc4cc(-c5ccccn5)ccc34)cc2)cc1.Cl")
"7%"
>>> value_reported("O=c1cc(N2CCOCC2)nc2n(Cc3cccc4ccccc34)ccn12")
"0%"
>>> value_reported("c1ccc(-c2n[nH]cc2-c2ccnc3ccccc23)nc1")
"13%"
>>> value_reported("COc1cc2c(cc1OC[C@@H](O)CO)ncc1c3ccc(C#N)cc3[nH]c21")
"0%"
>>> value_reported("O=C(NCCNc1ccnc(Nc2ccc(F)cc2)n1)c1cc2ccccc2s1")
"0%"

Ask: So what's the measured %Inh for this one? `Cn1cc(-c2ccc3c(c2)CCN3C(=O)Cc2ccccc2Cl)c2c(N)ncnc21`
Reply: 13%

Ask: So what's the measured %Inh for this one? `Cn1ccc2ncnc(Oc3ccc(NC(=O)Nc4ccncc4)c(Cl)c3)c21`
Reply: 0%

====

Reported %Inh values for the following compounds.
# Test system: MAP3K4
# experimental.context: concentration: 1 μM, replicates: in singlicate; n = 1

Below, 2 compounds whose answers are already recorded.
>>> value_reported("Fc1ccc(-c2nn3c(OCC(F)(F)F)cccc3c2-c2ccncc2)cc1")
"0%"
>>> value_reported("Cn1ccc2ncnc(Oc3ccc(NC(=O)Nc4ccncc4)c(Cl)c3)c21")
"0%"

Ask: So what's the measured %Inh for this one? `O=c1cc(N2CCOCC2)nc2n(Cc3cccc4ccccc34)ccn12`
Reply: 0%

Ask: So what's the measured %Inh for this one? `Cc1cccc(Cn2ccn3c(=O)cc(N4CCOCC4)nc23)c1`
Reply: 0%

Ask: So what's the measured %Inh for this one? `c1ccc(-c2cc(-c3c[nH]nc3-c3ccccn3)ccn2)cc1`
Reply: 0%

Ask: So what's the measured %Inh for this one? `O=C(NCCNc1ccnc(Nc2ccc(F)cc2)n1)c1cc2ccccc2s1`
Reply: 0%

Ask: So what's the measured %Inh for this one? `Cc1cccc(-c2nc(-c3ccc(S(C)(=O)=O)cc3)sc2-c2ccncc2)c1`
Reply: 0%

====

# Test system: STK36
# experimental.context: concentration: 1 μM, replicates: in singlicate; n = 1
value.type: %Inh (%)
Response body: numeric value in %, unit text excluded.

>>> value_reported("O=C1Cc2cc(Nc3nc(NCc4cccc(S(=O)(=O)C(F)(F)F)c4)ncc3C(F)(F)F)ccc2N1")
0
>>> value_reported("CSc1ccc(-c2cc3ncnc(SCC(=O)O)c3s2)cc1")
0

Ask: So what's the measured %Inh for this one? O=C(c1ccc(-c2cc(-c3c[nH]nc3-c3ccccn3)ccn2)cc1)N1CCOCC1 [GW812171]
Reply: 2

Ask: So what's the measured %Inh for this one? Cc1c(Cn2c(C)nn3c(=O)cc(N4CCOC(C)C4)nc23)cccc1C(F)(F)F (stereo not drawn) [GSK2344444]
Reply: 0

Ask: So what's the measured %Inh for this one? O=C(Nc1cccc(-c2nn3ncccc3c2-c2ccnc(Nc3cccc(C(F)(F)F)c3)n2)c1)c1c(F)cccc1F [GSK299495]
Reply: 99

Ask: So what's the measured %Inh for this one? c1ccc(-c2n[nH]cc2-c2ccnc3ccccc23)nc1 [GW271431]
Reply: 0

Ask: So what's the measured %Inh for this one? CC(C)Oc1ccc2c(-c3ccnc(Nc4ccc(N5CCN(C)CC5)cc4)n3)cnn2n1 [GW696155]
Reply: 70

Ask: So what's the measured %Inh for this one? `CN1c2ccc(NCc3ccc(F)cc3)cc2-c2c(cnn2C)S1(=O)=O`
Reply: 0

Ask: So what's the measured %Inh for this one? Cl.Nc1ncnc2occ(-c3ccc(NC(=O)Nc4cc(C(F)(F)F)ccc4F)cc3)c12 [SB-707548]
Reply: 0

Ask: So what's the measured %Inh for this one? `O=C(NOCC1CC1)c1ccc(F)c(F)c1Nc1ccc(I)cc1Cl`
Reply: 0

Ask: So what's the measured %Inh for this one? Cl.Oc1cccc(Nc2ccnc3cc(-c4ccncc4)ccc23)c1 [GW494601]
Reply: 0

Ask: So what's the measured %Inh for this one? O=C(NCCNc1ccnc(Nc2ccc(F)cc2)n1)Nc1ccccc1F [GSK1379880]
Reply: 48

Ask: So what's the measured %Inh for this one? `Cc1cccc(-c2nc(-c3ccc(S(C)(=O)=O)cc3)sc2-c2ccncc2)c1`
Reply: 30

Ask: So what's the measured %Inh for this one? NS(=O)(=O)c1cccc(-c2ccc3nccc(-c4cccc(S(N)(=O)=O)c4)c3c2)c1 [GW867253]
Reply: 0

Ask: So what's the measured %Inh for this one? O=c1cc(N2CCOCC2)nc2n(Cc3cccc(F)c3)ccn12 [GSK2297430]
Reply: 0

Ask: So what's the measured %Inh for this one? NCC(NC(=O)c1cc(-c2cn[nH]c2)c(-c2ccnc3[nH]ccc23)s1)c1ccccc1.O=C(O)C(F)(F)F.O=C(O)C(F)(F)F (stereo not drawn) [GSK1325775]
Reply: 0

Ask: So what's the measured %Inh for this one? CC(C)(C)n1cnc2c(N)ncnc21 [SKF-97359]
Reply: 0

Ask: So what's the measured %Inh for this one? Cc1nnc(-c2ccc3ncc(-c4ccc(S(C)=O)cc4)n3c2)o1 (stereo not drawn)
Reply: 9
